# system name: QuantiLum Luciferase (Photinus pyralis, UniProt P08659)
# Construct: purchased Promega Corporation E170
# Sequence (P08659 whole entry): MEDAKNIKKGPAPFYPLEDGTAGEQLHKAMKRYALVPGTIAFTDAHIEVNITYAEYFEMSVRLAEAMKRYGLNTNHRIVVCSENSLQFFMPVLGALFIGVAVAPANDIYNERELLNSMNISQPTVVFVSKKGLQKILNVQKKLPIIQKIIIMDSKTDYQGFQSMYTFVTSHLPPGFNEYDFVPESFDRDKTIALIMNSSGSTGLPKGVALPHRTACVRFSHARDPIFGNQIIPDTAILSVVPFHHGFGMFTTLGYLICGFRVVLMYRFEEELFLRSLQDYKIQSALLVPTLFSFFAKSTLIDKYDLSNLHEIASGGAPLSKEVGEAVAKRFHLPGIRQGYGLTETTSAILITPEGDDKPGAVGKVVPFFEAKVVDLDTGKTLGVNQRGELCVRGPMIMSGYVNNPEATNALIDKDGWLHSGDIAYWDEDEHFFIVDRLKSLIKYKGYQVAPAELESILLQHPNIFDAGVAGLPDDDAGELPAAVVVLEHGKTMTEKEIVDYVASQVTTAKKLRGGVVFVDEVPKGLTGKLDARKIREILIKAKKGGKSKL
# protocol notes: Scaffolds: light emission of luciferin derivatives with QuantiLum luciferase alone, + Co A, + DTT, + Co A and DTT
# Format: biochemical, firefly
# measurement context: Derivative Conc. 100; Alone
Collected light emission values values appear next to each entry.
Enter the number alone.

Sample answers from the record:
- compound: "O=C(O)[C@H]1CSC(c2ccc3cc(Oc4ccc(C(F)(F)F)cc4[N+](=O)[O-])ccc3n2)=N1 [GST #3]"
  light emission values: 16388
- compound: "NCCCOc1ccc2nc(C3=N[C@@H](C(=O)O)CS3)sc2c1 [MAO-3, 6-Aminopropoxyluciferin]"
  light emission values: 348013
- compound: "CCN(CC)c1ccc2nc(C3=NC(C(=O)O)CS3)sc2c1 (stereo not shown) [diethylaminoluciferin]"
  light emission values: 9082149

// moving on: another record for light emission values
Reported light emission values ( COC(=O)[C@H]1CSC(c2ccc3cc(Oc4ccc(C(F)(F)F)cc4[N+](=O)[O-])ccc3n2)=N1 [GST #4] ) = 2119

====

# system name: QuantiLum Luciferase (Photinus pyralis, UniProt P08659)
# Construct: purchased Promega Corporation E170
# protocol notes: Scaffolds: light emission of luciferin derivatives with QuantiLum luciferase alone, + Co A, + DTT, + Co A and DTT
# Format: biochemical, firefly
# measurement context: Derivative Conc. 12.5; Co A + DTT
In plain terms, low light emission values, meaning strictly below 50000, gives y, and everything else gives n.

Would you please look over these solved cases?
- compound: "COC(=O)[C@H]1CSC(c2ccc3cc(Oc4ccc(C(F)(F)F)cc4[N+](=O)[O-])ccc3n2)=N1"
  system name: "QuantiLum Luciferase (Photinus pyralis, UniProt P08659)"
  group: "y"
- compound: "O=C(O)[C@H]1CSC(c2ccc3cc(Oc4ccc(C(F)(F)F)cc4[N+](=O)[O-])ccc3n2)=N1"
  system name: "QuantiLum Luciferase (Photinus pyralis, UniProt P08659)"
  group: "y"
- compound: "NCCCOc1ccc2nc(C3=N[C@@H](C(=O)O)CS3)sc2c1"
  system name: "QuantiLum Luciferase (Photinus pyralis, UniProt P08659)"
  group: "n"
- compound: "CCN(CC)c1ccc2nc(C3=NC(C(=O)O)CS3)sc2c1 (centres unmarked)"
  system name: "QuantiLum Luciferase (Photinus pyralis, UniProt P08659)"
  group: "n"
- compound: "O=C(O)[C@H]1CSC(c2nc3ccc(OCc4ccccc4)cc3s2)=N1 [luciferin 6-benzyl ether, reference compound]"
  system name: "QuantiLum Luciferase (Photinus pyralis, UniProt P08659)"
  group: "n"
- compound: "CN(Cc1ccccc1)c1ccc2nc(C3=NC(C(=O)O)CS3)sc2c1 (centres unmarked)"
  system name: "QuantiLum Luciferase (Photinus pyralis, UniProt P08659)"
  group: "n"

input: Say whether its light emission values is strictly beneath 50000. Entry: O=C(O)[C@H]1CSC(c2nc3ccc(OCCO)cc3s2)=N1 [2hydroxyethoxyluciferin ether]
output: n

input: Say whether its light emission values is strictly beneath 50000. Entry: COc1ccc2nc(C3=N[C@@H](C(=O)O)CS3)sc2c1 [luciferin 6-methyl ether, D-luciferin 6' methyl ether, reference compound]
output: y

====

Collected light emission values values appear next to each entry.
# system name: QuantiLum Luciferase (Photinus pyralis)
# Construct: purchased Promega Corporation E170
# protocol notes: Scaffolds: light emission of luciferin derivatives with QuantiLum luciferase alone, + Co A, + DTT, + Co A and DTT
# Type: biochemical, firefly
# measurement context: Derivative Conc. 100; Alone

- compound: "COc1ccc2nc(C3=N[C@@H](C(=O)O)CS3)sc2c1 [luciferin 6-methyl ether, D-luciferin 6' methyl ether, reference compound]"
  system name: "QuantiLum Luciferase (Photinus pyralis)"
  light emission values: 3589
- compound: "O=C(O)[C@H]1CSC(c2nc3ccc(OCc4ccccc4)cc3s2)=N1 [luciferin 6-benzyl ether, reference compound]"
  system name: "QuantiLum Luciferase (Photinus pyralis)"
  light emission values: 31581
- compound: "O=C(O)[C@H]1CSC(c2nc3ccc(OCCO)cc3s2)=N1 [2hydroxyethoxyluciferin ether]"
  system name: "QuantiLum Luciferase (Photinus pyralis)"
  light emission values: 53804

// moving on: another record for light emission values
Reported light emission values ( CN(Cc1ccccc1)c1ccc2nc(C3=NC(C(=O)O)CS3)sc2c1 (stereo not shown) ) = 85579872

====

# system name: QuantiLum Luciferase (Photinus pyralis, UniProt P08659)
# Construct: purchased Promega Corporation E170
# protocol notes: Scaffolds: light emission of luciferin derivatives with QuantiLum luciferase alone, + Co A, + DTT, + Co A and DTT
# Type: biochemical, firefly
# measurement context: Derivative Conc. 3.13; Co A
recorded endpoint: light emission values
Enter the number alone.

Sample answers from the record:
- molecule: "O=C(O)[C@H]1CSC(c2nc3ccc(OCCO)cc3s2)=N1 [2hydroxyethoxyluciferin ether]"
  system name: "QuantiLum Luciferase (Photinus pyralis, UniProt P08659)"
  light emission values: 14986
- molecule: "O=C(O)[C@H]1CSC(c2ccc3cc(Oc4ccc(C(F)(F)F)cc4[N+](=O)[O-])ccc3n2)=N1"
  system name: "QuantiLum Luciferase (Photinus pyralis, UniProt P08659)"
  light emission values: 4832
- molecule: "CN(Cc1ccccc1)c1ccc2nc(C3=NC(C(=O)O)CS3)sc2c1 (centres unmarked)"
  system name: "QuantiLum Luciferase (Photinus pyralis, UniProt P08659)"
  light emission values: 23501282
- molecule: "O=C(O)[C@H]1CSC(c2nc3ccc(OCc4ccccc4)cc3s2)=N1 [luciferin 6-benzyl ether, reference compound]"
  system name: "QuantiLum Luciferase (Photinus pyralis, UniProt P08659)"
  light emission values: 55778
- molecule: "CCN(CC)c1ccc2nc(C3=NC(C(=O)O)CS3)sc2c1 (centres unmarked)"
  system name: "QuantiLum Luciferase (Photinus pyralis, UniProt P08659)"
  light emission values: 1941060

Reported light emission values ( COc1ccc2nc(C3=N[C@@H](C(=O)O)CS3)sc2c1 [luciferin 6-methyl ether, D-luciferin 6' methyl ether, reference compound] ) = 1360

Reported light emission values ( NCCCOc1ccc2nc(C3=N[C@@H](C(=O)O)CS3)sc2c1 ) = 176814

Reported light emission values ( COC(=O)[C@H]1CSC(c2ccc3cc(Oc4ccc(C(F)(F)F)cc4[N+](=O)[O-])ccc3n2)=N1 ) = 1635

====

# system name: QuantiLum Luciferase (Photinus pyralis)
# Construct: purchased Promega Corporation E170
# protocol notes: Scaffolds: light emission of luciferin derivatives with QuantiLum luciferase alone, + Co A, + DTT, + Co A and DTT
# Format: biochemical, firefly
# measurement context: Derivative Conc. 1.07; DTT
In plain terms, low light emission values, meaning strictly below 60000, gives y, and everything else gives n.

Would you please look over these solved cases?
- compound: "NCCCOc1ccc2nc(C3=N[C@@H](C(=O)O)CS3)sc2c1"
  group: "n"
- compound: "COc1ccc2nc(C3=N[C@@H](C(=O)O)CS3)sc2c1 [luciferin 6-methyl ether, D-luciferin 6' methyl ether, reference compound]"
  group: "y"
- compound: "COC(=O)[C@H]1CSC(c2ccc3cc(Oc4ccc(C(F)(F)F)cc4[N+](=O)[O-])ccc3n2)=N1"
  group: "y"
- compound: "O=C(O)[C@H]1CSC(c2nc3ccc(OCCO)cc3s2)=N1 [2hydroxyethoxyluciferin ether]"
  group: "y"
- compound: "O=C(O)[C@H]1CSC(c2ccc3cc(Oc4ccc(C(F)(F)F)cc4[N+](=O)[O-])ccc3n2)=N1"
  group: "y"

input: Say whether its light emission values is strictly beneath 60000. Entry: O=C(O)[C@H]1CSC(c2nc3ccc(OCc4ccccc4)cc3s2)=N1 [luciferin 6-benzyl ether, reference compound]
output: y

input: Say whether its light emission values is strictly beneath 60000. Entry: CN(Cc1ccccc1)c1ccc2nc(C3=NC(C(=O)O)CS3)sc2c1 (centres unmarked)
output: n

input: Say whether its light emission values is strictly beneath 60000. Entry: CCN(CC)c1ccc2nc(C3=NC(C(=O)O)CS3)sc2c1 (centres unmarked)
output: y

====

# system name: QuantiLum Luciferase (Photinus pyralis)
# Construct: purchased Promega Corporation E170
# protocol notes: Scaffolds: light emission of luciferin derivatives with QuantiLum luciferase alone, + Co A, + DTT, + Co A and DTT
# Type: biochemical, firefly
# measurement context: Derivative Conc. 3.13; Co A + DTT
Collected light emission values values appear next to each entry.
Enter the number alone.

Sample answers from the record:
- compound: "O=C(O)[C@H]1CSC(c2ccc3cc(Oc4ccc(C(F)(F)F)cc4[N+](=O)[O-])ccc3n2)=N1 [GST #3]"
  light emission values: 8826
- compound: "O=C(O)[C@H]1CSC(c2nc3ccc(OCc4ccccc4)cc3s2)=N1 [luciferin 6-benzyl ether, reference compound]"
  light emission values: 80626
- compound: "CCN(CC)c1ccc2nc(C3=NC(C(=O)O)CS3)sc2c1 (stereo not shown) [diethylaminoluciferin]"
  light emission values: 93423

// moving on: another record for light emission values
Reported light emission values ( CN(Cc1ccccc1)c1ccc2nc(C3=NC(C(=O)O)CS3)sc2c1 (stereo not shown) [methylbenzylaminoluciferin] ) = 9404429

Values compiled from patent EP1935986B1.
